Test system: ERK4;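 note: KINOMEscan kinase panel screen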
Construct: gene MAPK4
conditionContext: concentration: 1 μM, replicates: in singlicate; n = 1
Could you please report measured %Inh for the items listed next?
Give bare numbers, in %.

Solved cases (3 shown):
> print(dat)
                                   molecule  testsystem  number
1  Fc1cccc(COc2ccc(Nc3ncnc4nn5ccccc5c34)cc2Cl)c1 [GW689066]        ERK4       0
2  Nc1n[nH]c2nnc(-c3ccccc3)cc12 [SB-517389]        ERK4      30
3  Cc1cc(N2CCC(NS(=O)(=O)c3ccc(F)cc3)CC2)nc(Nc2cccc(C#N)c2)n1.O=C(O)C(F)(F)F [GSK1653537]        ERK4       0

Items follow; give %Inh for each.
1. COc1ccc(-c2nc3n(c2-c2ccncc2)CCC3)cc1 [SKF-104493]
2. Nc1nc(-c2ccccn2)c(-c2ccnc3ccccc23)s1 [GW548057]
3. Oc1ccc2ncnc(Nc3ccc(OCc4ccccc4)cc3)c2c1 [GI262866]

1: 0; 2: 31; 3: 0

Where do the numbers come from? From paper PMC5540273.
